target-or-test-system: TarO (Staphylococcus aureus)
Sequence (Q2G060 1-351): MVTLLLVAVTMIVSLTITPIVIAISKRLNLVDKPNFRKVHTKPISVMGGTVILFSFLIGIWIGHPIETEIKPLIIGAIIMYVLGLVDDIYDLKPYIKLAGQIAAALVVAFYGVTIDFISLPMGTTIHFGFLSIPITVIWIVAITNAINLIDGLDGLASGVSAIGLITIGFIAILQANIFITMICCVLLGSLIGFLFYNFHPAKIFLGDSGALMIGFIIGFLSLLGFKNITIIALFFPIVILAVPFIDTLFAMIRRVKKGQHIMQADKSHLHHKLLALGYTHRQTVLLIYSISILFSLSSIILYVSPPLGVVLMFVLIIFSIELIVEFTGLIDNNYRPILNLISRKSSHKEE
protocol-details: TarO Biochemical Enzymatic Assay (LC-MS end point, C55-PP-GlcNAc (LIPID III) production)
condition-context: TarO membrane preparation derived from MRSA COL; read-out: TARO inhibitor IC50
measured-attribute: IC50 (nM)
Number only, in nM; omit the unit.

// field: IC50; key: CCN(C(=O)CCn1c(C2CCCN(C(=O)OC(C)(C)C)C2)nc2ccccc21)C1CCCCC1 (stereo not shown) ; value = 450

---

Kindly supply the reported IC95 values for the records listed here.
System: MRSA COL (MB5393)
protocol-details: TarO Inhibitor/β-Lactam Synergy Assay
Type: cell-based, Staphylococcus aureus
condition-context: Staphylococcus aureus, TarO inhibitor alone, 20 hours, OD600, 95% growth inhibition, read-out: MITC95 TarO inhibitor alone, Bacteria: SA_MB5393

// field: IC95; key: `CCN(C(=O)CCn1c(-c2ccc(OCC(F)(F)F)cc2)nc2ccccc21)C1CCCCC1` ; value = > 200 µM

// field: IC95; key: `CCN(C(=O)CCn1c2cccnc2nc1[C@H]1CC[C@H](CC)CC1)C1CCCCC1` ; value = > 200 µM

// field: IC95; key: `CCN(C(=O)CCn1c(-c2ccc(C(=O)OC)cc2)nc2ccccc21)C1CCCCC1` ; value = > 200 µM

// field: IC95; key: CCOC(=O)N1CCCC(c2nc3cc(F)ccc3n2CCC(=O)N(CC)C2CCCCC2)C1 (centres unmarked) ; value = > 200 µM

// field: IC95; key: `CCN(C(=O)CCn1c2ccc(C3CC3)cc2nc1[C@H]1CC[C@H](CC)CC1)C1CCCCC1` ; value = > 200 µM

// field: IC95; key: `CCN(C(=O)CCn1c(N2CCC(C(C)(C)C)CC2)nc2ccccc21)C1CCCCC1` ; value = > 200 µM

// field: IC95; key: CCN(C(=O)CCn1c(C2CCCN(c3nccc(OC)n3)C2)nc2ccccc21)C1CCCCC1 (centres unmarked) ; value = 100 µM

// field: IC95; key: `CCN(C(=O)CCn1c2ccc(Br)cc2nc1[C@H]1CC[C@H](CC)CC1)C1CCCCC1` ; value = > 200 µM

// field: IC95; key: CCN(C(=O)CCn1c(C2CCCN(C(=O)OC(C)C)C2)nc2ccccc21)C1CCCCC1 (centres unmarked) ; value = 100 µM

// field: IC95; key: `CCN(C(=O)CCn1c2cc(-c3cnn(C)c3)ccc2nc1[C@H]1CC[C@H](CC)CC1)C1CCCCC1` ; value = > 200 µM

// field: IC95; key: `CCN(C(=O)CCn1c(N2CCC(F)(F)CC2)nc2ccccc21)C1CCCCC1` ; value = > 200 µM

// field: IC95; key: `CCN(C(=O)CCn1c(N2CCC(C(F)F)CC2)nc2ccccc21)C1CCCCC1` ; value = > 200 µM

// field: IC95; key: `CCOc1ccc(-c2nc3ccccc3n2CCC(=O)N(CC)C2CCCCC2)cn1` ; value = > 200 µM

// field: IC95; key: `CC1CCN(C(=O)CCn2c(C3CCCCC3)nc3ccccc32)CC1` ; value = > 200 µM

// field: IC95; key: `CCN(C(=O)CCn1c2cc(CO)ccc2nc1[C@H]1CC[C@H](CC)CC1)C1CCCCC1` ; value = > 200 µM

// field: IC95; key: CCN(C(=O)CCn1c(C2CCCN(C(=O)OC(C)(C)C)C2)nc2cc(F)ccc21)C1CCCCC1 (centres unmarked) ; value = > 200 µM

// field: IC95; key: `CCC1CCN(Cc2nc3cc(C)ccc3n2CCC(=O)N(CC)C2CCCCC2)CC1` ; value = 50 µM
